# Assayed system: T1, monomeric cynomolgus monkey CSF1R ectodomain protein (cynomolgus monkey, UniProt P07333 20-517 (human entry))
# T1 construct: also called monomeric cyno CSF1R; Cyno CSF1R
# T1 chain: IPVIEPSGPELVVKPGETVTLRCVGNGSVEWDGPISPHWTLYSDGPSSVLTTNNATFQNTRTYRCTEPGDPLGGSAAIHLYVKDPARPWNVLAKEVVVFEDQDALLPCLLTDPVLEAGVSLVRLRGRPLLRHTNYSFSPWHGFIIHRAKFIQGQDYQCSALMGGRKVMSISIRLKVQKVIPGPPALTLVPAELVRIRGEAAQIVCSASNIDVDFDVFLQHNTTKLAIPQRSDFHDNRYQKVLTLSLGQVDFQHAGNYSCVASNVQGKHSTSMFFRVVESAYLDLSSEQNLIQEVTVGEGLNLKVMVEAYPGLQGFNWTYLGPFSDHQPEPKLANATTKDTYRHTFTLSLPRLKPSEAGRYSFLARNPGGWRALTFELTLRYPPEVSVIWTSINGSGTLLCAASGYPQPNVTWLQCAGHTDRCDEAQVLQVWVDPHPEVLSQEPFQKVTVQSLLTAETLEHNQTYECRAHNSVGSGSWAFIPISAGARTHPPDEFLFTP
# Test description: SPR Biacore, IgG captured, monomeric CSF1R analyte

# Binder, koff, s⁻¹
data = [
    ("MH6 (antibody, V domains shown, Designer clone, human IgG4(S228P)/Ckappa IgG) VH: QVQLVQSGAEVKKPGSSVKVSCKASGYTFSSYYMIWVRQAPGQGLEWMGDINPYNGGANYAQKFQGRVTITADESTSTAYMELSSLRSEDTAVYYCAREGPYFSNLYVMDYWGQGTLVTVSS VL: EIVLTQSPATLSLSPGERATLSCRASQSVSYEGENYLAWYQQKPGQAPRLLIYAASNRATGIPARFSGSGSGTDFTLTISSLEPEDFAVYYCQLSNQDLLTFGGGTKVEIK", 0.00064),
]

Source of measurements: patent US20210301026A1
